# Tested on: primary AML patient cells (S089)
# ASSAY NOTES: viability relative to DMSO control (fraction); higher = less drug effect (more viable cells)
# ASSAY CONDITIONS: 1 µM; 48 h
Each item that follows carries a reported viability.
Respond with the number and no other words.

// below: answered compounds
{"STRUCTURE": "CC#CC(=O)N1CCC[C@H]1c1nc(-c2ccc(C(=O)Nc3ccccn3)cc2)c2c(N)nccn12", "viability": 0.679}
{"STRUCTURE": "CC(C)(C)C[C@@H]1N[C@@H](C(=O)N[C@H]2CC[C@H](O)CC2)[C@H](c2cccc(Cl)c2F)[C@]12C(=O)Nc1cc(Cl)ccc12", "viability": 0.842}
{"STRUCTURE": "CCc1cnn2c(NCc3ccc[n+]([O-])c3)cc(N3CCCC[C@H]3CCO)nc12", "viability": 0.0498}
{"STRUCTURE": "CC(C)C[C@H](NC(=O)CNC(=O)c1cc(Cl)ccc1Cl)B(O)O", "viability": 0.583}
{"STRUCTURE": "C=CC(=O)N1CCC[C@@H](n2nc(-c3ccc(Oc4ccccc4)cc3)c3c(N)ncnc32)C1", "viability": 0.6}

Note: attention shifts to another entry.
# get_value(readout='viability', item= Cc1nc(Nc2ncc(C(=O)Nc3c(C)cccc3Cl)s2)cc(N2CCN(CCO)CC2)n1 )
0.537

----------
# Test system: primary AML patient cells (S002)
# ASSAY NOTES: viability relative to DMSO control (fraction); higher = less drug effect (more viable cells)
# ASSAY CONDITIONS: 10 µM; 48 h
ASSAY METRIC: viability
Write the value as a bare number.

Sample Cc1sc2c(c1C)C(c1ccc(Cl)cc1)=N[C@@H](CC(=O)Nc1ccc(O)cc1)c1nnc(C)n1-2 [OTX015] — what was its viability?
0.317

----------
# Tested on: primary AML patient cells (S017)
# ASSAY NOTES: viability relative to DMSO control (fraction); higher = less drug effect (more viable cells)
# ASSAY CONDITIONS: 0.2 µM; 48 h
ASSAY METRIC: viability
Form field (numeric): enter value without unit.

These recorded examples may help you get a feel for the data.
{"COMPOUND": "Nc1cccc2c1CN(C1CCC(=O)NC1=O)C2=O (stereo not given) [Lenalidomide]", "TARGET DESC": "primary AML patient cells (S017)", "viability": 0.982}
{"COMPOUND": "Nc1ccc2ncnc(NCCc3ccc(Oc4ccccc4)cc3)c2c1", "TARGET DESC": "primary AML patient cells (S017)", "viability": 0.875}
{"COMPOUND": "COc1cccc2c1C(=O)c1c(O)c3c(c(O)c1C2=O)C[C@@](O)(C(=O)CO)C[C@@H]3O[C@H]1C[C@H](N)[C@H](O)[C@H](C)O1", "TARGET DESC": "primary AML patient cells (S017)", "viability": 0.96}
{"COMPOUND": "CC#CC(=O)N1CCC[C@H]1c1nc(-c2ccc(C(=O)Nc3ccccn3)cc2)c2c(N)nccn12", "TARGET DESC": "primary AML patient cells (S017)", "viability": 1.15}

I am curious: what viability value has been reported for O=C1c2c(O)ccc(O)c2C(=O)c2c(NCCNCCO)ccc(NCCNCCO)c21 ?
0.608

----------
# Test system: primary ALL patient cells (S088)
# ASSAY NOTES: viability relative to DMSO control (fraction); higher = less drug effect (more viable cells)
# ASSAY CONDITIONS: 0.6 µM; 48 h
Each record here notes measured viability.

Consider the following illustrative entries.
{"STRUCTURE": "O=C(c1cc(Cc2n[nH]c(=O)c3ccccc23)ccc1F)N1CCN(C(=O)C2CC2)CC1", "viability": 0.788}
{"STRUCTURE": "C[C@@H](Oc1cc(-c2cnn(C3CCNCC3)c2)cnc1N)c1c(Cl)ccc(F)c1Cl", "viability": 0.798}
{"STRUCTURE": "Nc1ncn([C@H]2C[C@H](O)[C@@H](CO)O2)c(=O)n1", "viability": 0.982}
{"STRUCTURE": "Cc1cc(Nc2ncc(Cl)c(Nc3ccccc3S(=O)(=O)C(C)C)n2)c(OC(C)C)cc1C1CCNCC1", "viability": 0.558}
{"STRUCTURE": "CCN1CCN(Cc2ccc(Nc3ncc(F)c(-c4cc(F)c5nc(C)n(C(C)C)c5c4)n3)nc2)CC1", "viability": 0.517}
{"STRUCTURE": "N#CC[C@H](C1CCCC1)n1cc(-c2ncnc3[nH]ccc23)cn1", "viability": 0.994}

Turning now to a further record.
Bench note: what viability did CS(=O)(=O)c1ccc(C(=O)Nc2ccc(Cl)c(-c3ccccn3)c2)c(Cl)c1 show?
0.779

----------
# Tested on: primary AML patient cells (S085)
# ASSAY NOTES: viability relative to DMSO control (fraction); higher = less drug effect (more viable cells)
# ASSAY CONDITIONS: 0.016 µM; 48 h
ASSAY METRIC: viability
Lab note: record just the number, no unit beside it.

{"COMPOUND": "CC1(COc2ccc3c(c2)ncn3-c2ccc3cccc(N4CCC(N)CC4)c3n2)COC1 [Crenolanib]", "ASSAY METRIC": "viability", "VAL": 1.13}
{"COMPOUND": "CC(C)c1cc(C(=O)N2Cc3ccc(CN4CCN(C)CC4)cc3C2)c(O)cc1O [Onalespib]", "ASSAY METRIC": "viability", "VAL": 0.942}
{"COMPOUND": "CN1CC[C@H](c2c(O)cc(O)c3c(=O)cc(-c4ccccc4Cl)oc23)[C@H](O)C1 [Flavopiridol]", "ASSAY METRIC": "viability", "VAL": 0.858}

Could you now consider this next compound?
I'd like to know its viability. The compound in question is CC(C)c1cc(-c2n[nH]c(=O)n2-c2ccc3c(ccn3C)c2)c(O)cc1O [Ganetespib]
0.648

----------
# Test system: primary CLL patient cells (S043)
# ASSAY NOTES: viability relative to DMSO control (fraction); higher = less drug effect (more viable cells)
# ASSAY CONDITIONS: 0.12 µM; 48 h
Items are presented alongside their recorded viability.
The response must contain the number and no unit.

{"STRUCTURE": "CCc1nc(C(N)=O)c(Nc2ccc(N3CCC(N4CCN(C)CC4)CC3)c(OC)c2)nc1NC1CCOCC1", "TARGET DESC": "primary CLL patient cells (S043)", "ASSAY METRIC": "viability", "VAL": 1.01}
{"STRUCTURE": "Nc1ncn([C@H]2C[C@H](O)[C@@H](CO)O2)c(=O)n1", "TARGET DESC": "primary CLL patient cells (S043)", "ASSAY METRIC": "viability", "VAL": 0.976}
{"STRUCTURE": "N#CC[C@H](C1CCCC1)n1cc(-c2ncnc3[nH]ccc23)cn1", "TARGET DESC": "primary CLL patient cells (S043)", "ASSAY METRIC": "viability", "VAL": 1.05}

For the molecule Nc1nc(Cl)nc2c1ncn2[C@@H]1O[C@H](CO)[C@@H](O)[C@@H]1F , what viability is on record?
0.888

----------
# Test system: primary AML patient cells (S011)
# ASSAY NOTES: viability relative to DMSO control (fraction); higher = less drug effect (more viable cells)
# ASSAY CONDITIONS: 0.6 µM; 48 h
Note to self: use Fulfilled only for viability readings below 0.8; a reading exactly at 0.8 still gets Not fulfilled.

{"COMPOUND": "Nc1nc(=S)c2[nH]cnc2[nH]1 [Thioguanin]", "QUALITATIVE LABEL": "Fulfilled"}

Dear reviewer, please state whether Nc1ncn([C@H]2C[C@H](O)[C@@H](CO)O2)c(=O)n1 [Decitabine (Dacogen)] has viability strictly beneath 0.8.
Not fulfilled

Does this compound meet the criterion viability < 0.8? CCc1nc(C(N)=O)c(Nc2ccc(N3CCC(N4CCN(C)CC4)CC3)c(OC)c2)nc1NC1CCOCC1 [Gilteritinib]
Fulfilled

Criterion: viability strictly below 0.8. Is it met by N#CC[C@H](C1CCCC1)n1cc(-c2ncnc3[nH]ccc23)cn1 [Ruxolitinib] ?
Not fulfilled

Lab note: confirm whether the reported viability for this compound is below 0.8, equality not counting. compound: O=C(c1cc(Cc2n[nH]c(=O)c3ccccc23)ccc1F)N1CCN(C(=O)C2CC2)CC1 [Olaparib]
Not fulfilled

----------
# Tested on: primary AML patient cells (S085)
# ASSAY NOTES: viability relative to DMSO control (fraction); higher = less drug effect (more viable cells)
# ASSAY CONDITIONS: 2 µM; 48 h
viability overview
Kindly provide the number alone.

Some molecules with known viability results, for comparison:
{"STRUCTURE": "CC(C)c1cc(C(=O)N2Cc3ccc(CN4CCN(C)CC4)cc3C2)c(O)cc1O", "viability": 0.237}
{"STRUCTURE": "CC1(COc2ccc3c(c2)ncn3-c2ccc3cccc(N4CCC(N)CC4)c3n2)COC1", "viability": 1.82}
{"STRUCTURE": "Nc1nc(F)nc2c1ncn2[C@@H]1O[C@H](CO)[C@@H](O)[C@@H]1O", "viability": 0.172}
{"STRUCTURE": "CC(C)c1cc(-c2n[nH]c(=O)n2-c2ccc3c(ccn3C)c2)c(O)cc1O", "viability": 0.264}

Now take the following molecule into account.
Item: O=C(Nc1nc2ccccc2n1CCN1CCOCC1)c1cccc([N+](=O)[O-])c1 Test system: primary AML patient cells (S085) Read-out: viability Value: ?
1.04
